- Read-out: Macrophage colony-stimulating factor (MCSF), CSF1 (gene 1435)
- protocolDescription: BSK_hDFCGF_MCSF: BioMAP Diversity Plus: hDFCGF Assay for Macrophage colony-stimulating factor (MCSF) Biomarker Activity (AID 2283060)
- cond: primary human foreskin fibroblasts; actives raise or lower the signal
The source made the active and inactive calls. Rule for the calls: active = hit-call score of the fitted dose curve at least 0.9, where 1 is the maximum; inactive = score below 0.9.
Use one of these outcomes when replying: active, inactive

Known results for compounds:
| compound | className |
| --- | --- |
| ClC(Cl)=C(c1ccc(Cl)cc1)c1ccccc1Cl | active |
| O=C(O)C(Cl)Cl | inactive |
| CCCCCCCc1ccc(O)cc1 | active |
| COCCOCCO | inactive |
| CCOP(=S)(OCC)SCn1nnc2ccccc2c1=O | active |

Entry `Cc1ccc(N)cc1N` : call = ?
inactive

Entry `CC(C)Nc1ccc(Nc2ccccc2)cc1` : call = ?
active

Entry O=P1(N(CCCl)CCCl)NCCCO1 (stereo not drawn) : call = ?
inactive

* * *

- Read-out: E-selectin (Homo sapiens)
- protocolDescription: BSK_3C_Eselectin: BioMAP Diversity Plus: 3C Assay for Eselectin Biomarker Activity (AID 2283015)
- cond: primary human endothelial cells (HUVEC); actives raise or lower the signal
Active and inactive are the calls of the source. The calls were made as follows: active = hit-call score of the fitted dose curve at least 0.9, where 1 is the maximum; inactive = score below 0.9.
Use one of these outcomes when replying: 1 for active, -1 for inactive

Known results for compounds:
| compound | className |
| --- | --- |
| O=C(O)C(F)(F)OC(F)(F)C(F)(F)OC(F)(F)C(=O)O | -1 |
| FC(F)(F)C(F)(C(F)(F)F)C(F)(F)C(F)(F)CC1CO1 (configuration not stated) | -1 |
| CC(C)(C)c1ccccc1OP(=O)(Oc1ccccc1)Oc1ccccc1 | 1 |

Entry `CCNc1nc(Cl)nc(NC(C)(C)C)n1` : call = ?
-1

Entry CCCCC(CC)COC(=O)c1c(Br)c(Br)c(Br)c(Br)c1C(=O)OCC(CC)CCCC (configuration not stated) : call = ?
-1

* * *

- Read-out: Interleukin-1 alpha (IL1a), IL1A (gene 3552)
- protocolDescription: BSK_BE3C_IL1a: BioMAP Diversity Plus: BE3C Assay for Interleukin-1 alpha (IL1a) Biomarker Activity (AID 2283016)
- cond: primary human bronchial epithelial cells; actives raise or lower the signal
Active and inactive are the calls of the source. How the source made its calls: active means hit-call score of the fitted dose curve at least 0.9, where 1 is the maximum; inactive means score below 0.9.
Use one of these outcomes when replying: 1 = active, 0 = inactive

| molecule | className |
| --- | --- |
| CN(C)C(=O)Cl | 0 |

Entry `CCCN(CCC)c1c([N+](=O)[O-])cc(C(C)C)cc1[N+](=O)[O-]` : call = ?
0

Entry `O=[N+]([O-])c1ccc(Cl)c(Cl)c1` : call = ?
0

Entry `CCOP(=S)(S)OCC` : call = ?
0

Entry `CCOc1ccc(C(C)(C)COCc2cccc(Oc3ccccc3)c2)cc1` : call = ?
0

Entry `CCCCc1ccccc1` : call = ?
0

Entry `CC(C)(C)c1ccccc1OP(=O)(Oc1ccccc1)Oc1ccccc1` : call = ?
0

* * *

- Read-out: Interleukin-8 (IL8), CXCL8 (gene 3576)
- protocolDescription: BSK_MyoF_IL8: BioMAP Diversity Plus: MyoF Assay for Interleukin-8 (IL8) Biomarker Activity (AID 2284261)
- cond: primary human lung fibroblasts
- Experimental: BSK_MyoF is a cell-based, multiplexed-readout assay that uses lung fibroblasts, […], with measurements taken at 24 hours after chemical dosing in a microplate: 96-well plate.BSK_MyoF_IL8 is an assay component measured in the BSK_MyoF assay. […] The levels of cell surface (or secreted, indicated by the prefix "s") biomarker endpoints were measured by ELISA. […] Plates were read after 6 h.
Active and inactive are the calls of the source. The calls were made as follows: active = hit-call score of the fitted dose curve at least 0.9, where 1 is the maximum; inactive = score below 0.9.
Use one of these outcomes when replying: yes for active, no for inactive

Entry `CCCCOCCOP(=O)(OCCOCCCC)OCCOCCCC` : call = ?
no

Entry O=S1(=O)OCC2C(CO1)C1(Cl)C(Cl)=C(Cl)C2(Cl)C1(Cl)Cl (configuration not stated) : call = ?
no

Entry `Cc1ccc2c(c1N)C(=O)c1ccccc1C2=O` : call = ?
no

Entry `C=CC(=O)OCC(CC)(COC(=O)C=C)COC(=O)C=C` : call = ?
yes

Entry O=C(O)C(F)(OC(F)(F)C(F)(F)C(F)(F)F)C(F)(F)F (configuration not stated) : call = ?
no

Entry CCCCC(CC)COC(=O)c1c(Br)c(Br)c(Br)c(Br)c1C(=O)OCC(CC)CCCC (configuration not stated) : call = ?
no

Entry `O=C(O)C(F)(F)OC(F)(F)C(F)(F)OC(F)(F)F` : call = ?
no
